assay: Antiviral activity against T-tropic HIV1 BRU virus by cell culture based assay; type: functional, Human immunodeficiency virus type 1 (BRU ISOLATE); settings: Human immunodeficiency virus 1
attribute-measured: EC50 (nM)
Please reply with the bare figure in nM and do not write the unit itself.

Ask: Fill in reported EC50 for this entry: O=C(C(=O)N1CCN(C(=O)c2ccccc2)CC1)c1c[nH]c2c(-c3ncon3)ccc(F)c12
Reply: 3.38

Ask: Identify the reported EC50 for the following entry. O=C(C(=O)N1CCN(C(=O)c2ccccc2)CC1)c1c[nH]c2c(-c3nn[nH]n3)ccc(F)c12
Reply: 6.38

Ask: Fill in EC50 for record O=C(C(=O)N1CCN(C(=O)c2ccccc2)CC1)c1c[nH]c2cccc(F)c12
Reply: 90

###

experiment: Half life in human liver microsomes; type: ADME, Microsome
Examples of compounds with documented half-life follow.
Give the number; min is assumed, so skip it.

Worked examples follow.
{"compound": "O=C(C(=O)N1CCN(C(=O)c2ccccc2)CC1)c1c[nH]c2c(-c3cnc[nH]3)ccc(F)c12", "attribute-measured": "half-life", "reported-result": 16}
{"compound": "Cc1nnc(-c2ccc(F)c3c(C(=O)C(=O)N4CCN(C(=O)c5ccccc5)CC4)c[nH]c23)[nH]1", "attribute-measured": "half-life", "reported-result": 25}
{"compound": "O=C(C(=O)N1CCN(C(=O)c2ccccc2)CC1)c1c[nH]c2c(-c3nnco3)ccc(F)c12", "attribute-measured": "half-life", "reported-result": 10}

Ask: Read the entry O=C(C(=O)N1CCN(C(=O)c2ccccc2)CC1)c1c[nH]c2c(-c3cnco3)ccc(F)c12 and write its reported half-life.
Reply: 2.9

Ask: Return half-life (reported value) for this compound: COc1ccc(-c2ncon2)c2[nH]cc(C(=O)C(=O)N3CCN(C(=O)c4ccccc4)CC3)c12
Reply: 16

###

Documented Papp across a set of compounds
assay: Permeability across human Caco2 cells at pH 6.5; type: ADME, cell-based; conditions: Caco-2, pH 6.5, read-out: permeability

Reference set, count: 8
{"compound": "O=C(C(=O)N1CCN(C(=O)c2ccccc2)CC1)c1c[nH]c2c(-c3nn[nH]n3)ccc(F)c12", "reported-result": "1.7 ×10⁻⁶ cm/s"}
{"compound": "C[C@@H]1CN(C(=O)c2ccccc2)CCN1C(=O)C(=O)c1c[nH]c2c(-c3nn[nH]n3)ccc(F)c12", "reported-result": "< 1.5 ×10⁻⁶ cm/s"}
{"compound": "O=C(C(=O)N1CCN(C(=O)c2ccccc2)CC1)c1c[nH]c2c(-c3cnco3)ccc(F)c12", "reported-result": "12.2 ×10⁻⁶ cm/s"}
{"compound": "COc1ccc(-c2ncon2)c2[nH]cc(C(=O)C(=O)N3CCN(C(=O)c4ccccc4)CC3)c12", "reported-result": "14.8 ×10⁻⁶ cm/s"}
{"compound": "O=C(C(=O)N1CCN(C(=O)c2ccccc2)CC1)c1c[nH]c2c(-c3ncon3)ccc(F)c12", "reported-result": "> 30 ×10⁻⁶ cm/s"}
{"compound": "O=C(C(=O)N1CCN(C(=O)c2ccccc2)CC1)c1c[nH]c2c(-c3nnc[nH]3)ccc(F)c12", "reported-result": "1.9 ×10⁻⁶ cm/s"}
{"compound": "Nc1nc(-c2ccc(F)c3c(C(=O)C(=O)N4CCN(C(=O)c5ccccc5)CC4)c[nH]c23)no1", "reported-result": "6.9 ×10⁻⁶ cm/s"}
{"compound": "O=C(C(=O)N1CCN(C(=O)c2ccccc2)CC1)c1c[nH]c2c(-c3cnc[nH]3)ccc(F)c12", "reported-result": "3.7 ×10⁻⁶ cm/s"}

Query compound follows.
Ask: Specify measured Papp for Cc1nnc(-c2ccc(F)c3c(C(=O)C(=O)N4CCN(C(=O)c5ccccc5)CC4)c[nH]c23)[nH]1 .
Reply: 8.9 ×10⁻⁶ cm/s

###

experiment: Oral bioavailability in rat at 5 mg/kg; assay type: ADME, organism-based; conditions: in vivo
attribute-measured: bioavailability
Output should be the measured figure followed by the unit it is expressed in.

Would you please look over these solved cases?
{"compound": "O=C(C(=O)N1CCN(C(=O)c2ccccc2)CC1)c1c[nH]c2c(-c3cnco3)ccc(F)c12", "reported-result": "47%"}
{"compound": "O=C(C(=O)N1CCN(C(=O)c2ccccc2)CC1)c1c[nH]c2c(-c3ncon3)ccc(F)c12", "reported-result": "89%"}
{"compound": "O=C(C(=O)N1CCN(C(=O)c2ccccc2)CC1)c1c[nH]c2c(-c3nnc[nH]3)ccc(F)c12", "reported-result": "14%"}

Ask: Return reported bioavailability. Input molecule: O=C(C(=O)N1CCN(C(=O)c2ccccc2)CC1)c1c[nH]c2c(-c3nn[nH]n3)ccc(F)c12
Reply: 2.3%

###

assay: Half life in human liver microsomes; format: ADME, Microsome
attribute-measured: half-life (min)
Numeric only. Scale: min

{"compound": "Nc1nc(-c2ccc(F)c3c(C(=O)C(=O)N4CCN(C(=O)c5ccccc5)CC4)c[nH]c23)no1", "reported-result": 17}
{"compound": "O=C(C(=O)N1CCN(C(=O)c2ccccc2)CC1)c1c[nH]c2c(-c3nnc[nH]3)ccc(F)c12", "reported-result": 32}

Ask: Return the recorded half-life value; entry: O=C(C(=O)N1CCN(C(=O)c2ccccc2)CC1)c1c[nH]c2c(-c3ncon3)ccc(F)c12
Reply: 17

###

assay: Safety index, ratio fo CC50 for human HeLa CD4+ CCR5+ cells to EC50 for HIV1 JRFL; assay type: toxicity; conditions: read-out: Ratio CC50/EC50
attribute-measured: selectivity ratio
Returns: the value as a bare number; no unit string appended.

Ask: Answer with reported selectivity ratio of O=C(C(=O)N1CCN(C(=O)c2ccccc2)CC1)c1c[nH]c2c(-c3ncon3)ccc(F)c12
Reply: 1500

###

assay: Clearance in rat at 1 mg/kg, iv; type: ADME, organism-based; design: dose 1 mg/kg, route intravenous; conditions: in vivo
Each record here notes measured clearance.
Provide only the numeric value, understood in mL/min/kg.

See these solved cases before continuing.
{"compound": "O=C(C(=O)N1CCN(C(=O)c2ccccc2)CC1)c1c[nH]c2c(-c3cnco3)ccc(F)c12", "readout-units": "mL/min/kg", "clearance": 17}
{"compound": "O=C(C(=O)N1CCN(C(=O)c2ccccc2)CC1)c1c[nH]c2c(-c3ncon3)ccc(F)c12", "readout-units": "mL/min/kg", "clearance": 3.9}
{"compound": "O=C(C(=O)N1CCN(C(=O)c2ccccc2)CC1)c1c[nH]c2c(-c3nnc[nH]3)ccc(F)c12", "readout-units": "mL/min/kg", "clearance": 3.7}

Consider the additional molecule presented here.
Ask: Given O=C(C(=O)N1CCN(C(=O)c2ccccc2)CC1)c1c[nH]c2c(-c3nn[nH]n3)ccc(F)c12 , respond with its clearance.
Reply: 3.1

###

Quick reference for CC50 at 144 h among some compounds
experiment: Cytotoxicity against human HeLa CD4+ CCR5+ cells after 6 days by XTT assay; assay type: cell-based
Field format: number, assumed µM, no unit text.

Examples with answers:
{"compound": "O=C(C(=O)N1CCN(C(=O)c2ccccc2)CC1)c1c[nH]c2c(-c3ccccc3)ccc(F)c12", "readout-units": "µM", "reported-result": 6.8}
{"compound": "O=C(C(=O)N1CCN(C(=O)c2ccccc2)CC1)c1c[nH]c2c(-c3ncon3)ccc(F)c12", "readout-units": "µM", "reported-result": 74}

Ask: Identify measured CC50 at 144 h associated with Cc1nnc(-c2ccc(F)c3c(C(=O)C(=O)N4CCN(C(=O)c5ccccc5)CC4)c[nH]c23)[nH]1
Reply: 159

Ask: Please give measured CC50 at 144 h of the following entry: CC(=O)Nc1nc(-c2ccc(F)c3c(C(=O)C(=O)N4CCN(C(=O)c5ccccc5)CC4)c[nH]c23)no1
Reply: 229

Ask: Using the record for Cc1nc(-c2ccc(F)c3c(C(=O)C(=O)N4CCN(C(=O)c5ccccc5)CC4)c[nH]c23)no1 , state its measured CC50 at 144 h.
Reply: 226

Ask: Indicate its recorded CC50 at 144 h; the compound in question is O=C(C(=O)N1CCN(C(=O)c2ccccc2)CC1)c1c[nH]c2c(-c3nn[nH]n3)ccc(F)c12
Reply: 245

###

test: Cmax in rat at 5 mg/kg, po; format: ADME, organism-based; set-up: dose 5 mg/kg, route oral; conditions: in vivo
Recorded Cmax values for a group of compounds are listed next.
Answer format: numeric, µg/mL implied, no suffix.

See these solved cases before continuing.
{"compound": "O=C(C(=O)N1CCN(C(=O)c2ccccc2)CC1)c1c[nH]c2c(-c3cnco3)ccc(F)c12", "Cmax, µg/mL": 0.444}
{"compound": "O=C(C(=O)N1CCN(C(=O)c2ccccc2)CC1)c1c[nH]c2c(-c3nnc[nH]3)ccc(F)c12", "Cmax, µg/mL": 0.369}
{"compound": "O=C(C(=O)N1CCN(C(=O)c2ccccc2)CC1)c1c[nH]c2c(-c3ncon3)ccc(F)c12", "Cmax, µg/mL": 2.61}

Here is another compound to look at.
Ask: // fetch Cmax given entry O=C(C(=O)N1CCN(C(=O)c2ccccc2)CC1)c1c[nH]c2c(-c3nn[nH]n3)ccc(F)c12
Reply: 0.095
